Data origin: patent US10308916B2

Property: Relative reactivity, OATA W58L; scope: individual compounds
# Tested on: OATA W58L
# Format: biochemical
Give just the numeric value; % need not be written.

Guide cases for Relative reactivity, OATA W58L, answers given:
[
  {
    "compound": "Cc1cccc(C)c1OCC(C)N (centres unmarked) [Mexiletine, reference compound]",
    "measured-attribute": "Relative reactivity, OATA W58L",
    "observed-measurement": 284
  },
  {
    "compound": "Cc1ccc([C@H](C)N)cc1 [(S)-α,4-dimethylbenzylamine]",
    "measured-attribute": "Relative reactivity, OATA W58L",
    "observed-measurement": 78
  },
  {
    "compound": "CC(C)C(C)N (centres unmarked)",
    "measured-attribute": "Relative reactivity, OATA W58L",
    "observed-measurement": 305
  }
]

// lookup Relative reactivity, OATA W58L for CC(N)CO (racemic)
39

// lookup Relative reactivity, OATA W58L for CC(C)CC(C)N (centres unmarked)
283

// lookup Relative reactivity, OATA W58L for N[C@H]1CCc2ccccc21 [(S)-1-aminoindan]
54

----------
Property: Relative reactivity, OATA W58L; scope: individual compounds
# Tested on: OATA W58L
# Assay type: biochemical
Just so you know, I need the unit written after the number.

Guide cases for Relative reactivity, OATA W58L, answers given:
[
  {
    "compound": "CCC[C@H](N)c1ccccc1 [(S)-α-propylbenzylamine]",
    "measured-attribute": "Relative reactivity, OATA W58L",
    "observed-measurement": "2%"
  },
  {
    "compound": "CC[C@H](N)c1ccccc1 [(S)-α-ethylbenzylamine]",
    "measured-attribute": "Relative reactivity, OATA W58L",
    "observed-measurement": "20%"
  },
  {
    "compound": "CC(C)N",
    "measured-attribute": "Relative reactivity, OATA W58L",
    "observed-measurement": "72%"
  },
  {
    "compound": "CC(N)CCc1ccccc1 (centres unmarked)",
    "measured-attribute": "Relative reactivity, OATA W58L",
    "observed-measurement": "202%"
  }
]

Consider the additional compound presented here.
Form: Entry = CC(C)(C)C(N)c1ccccc1 (centres unmarked) | System = OATA W58L | Relative reactivity, OATA W58L = ____
2%
